# Assay context: in methanol, 298.15 K
Quantity measured: solubility (mole fraction)
Give the figure only, with no unit attached.

Input line: # query: solubility (mole fraction) of entry CCCSc1ccc2nc(NC(=O)OC)[nH]c2c1
Output line: 0.000193

---

# Assay context: in acetone, 278.15 K
Quantity measured: solubility (mole fraction)
Answer field: number only, no words.

Input line: GET /values?readout=solubility (mole fraction)&item= CCCSc1ccc2nc(NC(=O)OC)[nH]c2c1
Output line: 0.00151

---

# Assay context: in acetone, 298.15 K
Quantity measured: solubility (mole fraction)
Give only the figure.

Input line: Please report the recorded solubility (mole fraction) for CCCSc1ccc2nc(NC(=O)OC)[nH]c2c1 .
Output line: 0.00297

---

# Assay context: in isopropanol, 283.15 K
Quantity measured: solubility (mole fraction)

Input line: Dear colleague, I am looking for the recorded solubility (mole fraction) of the following compound: CCCSc1ccc2nc(NC(=O)OC)[nH]c2c1
Output line: 0.00013

---

# Assay context: in isopropanol, 293.15 K
Quantity measured: solubility (mole fraction)
A bare number is all that is needed in reply.

Input line: Give the measured solubility (mole fraction) of CCCSc1ccc2nc(NC(=O)OC)[nH]c2c1 .
Output line: 0.000192

---

# Assay context: in isopropanol, 313.15 K
Quantity measured: solubility (mole fraction)
Reply briefly: the number, and no unit.

Input line: Reported solubility (mole fraction), molecule CCCSc1ccc2nc(NC(=O)OC)[nH]c2c1 : ____
Output line: 0.000388

---

# Assay context: in water, 298.15 K
Quantity measured: solubility (mole fraction)

Input line: Using the record for CCCSc1ccc2nc(NC(=O)OC)[nH]c2c1 , report its solubility (mole fraction).
Output line: 5.31e-07

---

# Assay context: in isopropanol, 318.15 K
Quantity measured: solubility (mole fraction)
Answer as a number with no unit attached.

Input line: Which solubility (mole fraction) reading was recorded for the molecule CCCSc1ccc2nc(NC(=O)OC)[nH]c2c1 ?
Output line: 0.000453

---

# Assay context: in water, 308.15 K
Quantity measured: solubility (mole fraction)
Just the number, please.

Input line: What value of solubility (mole fraction) has been recorded for this entry: CCCSc1ccc2nc(NC(=O)OC)[nH]c2c1
Output line: 9.18e-07

---

# Assay context: in isopropanol, 303.15 K
Quantity measured: solubility (mole fraction)
Lab note: jot down the number only; don't add units.

Input line: Bench note: what solubility (mole fraction) did CCCSc1ccc2nc(NC(=O)OC)[nH]c2c1 show?
Output line: 0.000276

---

# Assay context: in acetone, 323.15 K
Quantity measured: solubility (mole fraction)

Input line: // lookup solubility (mole fraction) for CCCSc1ccc2nc(NC(=O)OC)[nH]c2c1
Output line: 0.00613

---

# Assay context: in acetone, 293.15 K
Quantity measured: solubility (mole fraction)
Answer using only a numeral; do not append any unit.

Input line: Report solubility (mole fraction) for CCCSc1ccc2nc(NC(=O)OC)[nH]c2c1 please.
Output line: 0.00254

---

# Assay context: in isopropanol, 323.15 K
Quantity measured: solubility (mole fraction)
Give your answer as a number; write no unit.

Input line: Consider the compound CCCSc1ccc2nc(NC(=O)OC)[nH]c2c1 and give its measured solubility (mole fraction).
Output line: 0.000532

---

# Assay context: in acetone, 283.15 K
Quantity measured: solubility (mole fraction)

Input line: Item CCCSc1ccc2nc(NC(=O)OC)[nH]c2c1 has what recorded solubility (mole fraction)?
Output line: 0.0018
